// provenance: patent US9700545B2

experiment: Automated moisture sorption/desorption (MB / DVS); assay type: physicochemical; conditions: sorption from 5% RH to 95% RH; desorption from 95% RH to 5% RH
readoutKind: form by XRPD after moisture sorption/desorption

CO[C@H]1/C=C/O[C@@]2(C)Oc3c(C)c(O)c4c(O)c(c5c(nc6cc(C)ccn65)c4c3C2=O)NC(=O)/C(C)=C\C=C\[C@H](C)[C@H](O)[C@@H](C)[C@@H](O)[C@@H](C)[C@H](OC(C)=O)[C@@H]1C [α dry] | α dry
